Each entry below lists one item and its recorded inhibition value.
- TEST_TARGET: Methyl-CpG-binding domain protein 2 (Homo sapiens) (UniProt Q9UBB5)
- Sequence (Q9UBB5 whole entry, looked up, the tested form may be a part): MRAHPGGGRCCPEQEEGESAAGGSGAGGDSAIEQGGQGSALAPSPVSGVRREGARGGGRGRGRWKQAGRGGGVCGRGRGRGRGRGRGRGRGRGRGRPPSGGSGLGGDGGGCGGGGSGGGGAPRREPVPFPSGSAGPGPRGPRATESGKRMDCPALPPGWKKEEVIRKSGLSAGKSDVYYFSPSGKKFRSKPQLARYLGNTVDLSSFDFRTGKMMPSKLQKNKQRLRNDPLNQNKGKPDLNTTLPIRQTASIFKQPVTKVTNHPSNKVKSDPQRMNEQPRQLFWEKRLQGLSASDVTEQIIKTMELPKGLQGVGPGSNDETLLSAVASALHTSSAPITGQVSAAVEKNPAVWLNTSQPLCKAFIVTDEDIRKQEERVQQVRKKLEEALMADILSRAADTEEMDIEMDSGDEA
- ASSAY_OVERVIEW: inhibitors of MBD2 binding to methylated DNA, primary screen, biochemical, TR-FRET, DNA-binding domain, human (AID 686964)
- ASSAY_CONDITIONS: MBD2 binding to methylated oligonucleotide, at 4.4 µM, hits give high values
Among all 370,000 compounds or so, about 1,100 (0.3%) were called active. This is one part of a sample in which actives are shown more often than they occur.
Answer with a number only, understood to be in %.

COC(=O)C(=Nc1ccccc1)/C(C(=O)C(=O)N(C)c1ccccc1)=C(\O)c1ccc(Cl)cc1	-5.32
CC(CCN1CCC(C(O)(c2ccccc2)c2ccccc2)CC1)Oc1ccc([N+](=O)[O-])cc1Cl (stereo not given)	1.05
C[C@H]1[C@H](NC(=O)c2cccc(N(C)C)c2)CC[C@@]23CCCN2C(=O)CCC[C@@H]13	-0.56

# compound `COc1nc(N(C)C)nc(N2CC(=O)N(CCNS(=O)(=O)c3ccc(C)cc3)C2=N)n1` ; its inhibition = 15.6

# compound CCC(=O)c1c(CC)c2n3c1=CC[C@H]3CC(Br)C=2 (stereo not given in full) ; its inhibition = 1.67

# compound `COC(=O)[C@]12C[C@H](CC(=O)NCc3ccccc3)C(=O)N(CCc3ccc(OC)c(OC)c3)C1=C[C@H](C(C)(C)C)O[C@@H]2C` ; its inhibition = 1.88

# compound `Cc1ccc(S(=O)(=O)NCCSC(C)(C)C)cc1` ; its inhibition = 0.35

# compound Cc1cccc(CN2CCN(C3CN(Cc4ccccc4)S(=O)(=O)C3)CC2)c1 (stereo not given) ; its inhibition = 1.18

# compound `CCn1c(=O)n2n(c1=O)[C@@]1(C=C3CCCC[C@H]32)N=C(NC(=O)c2ccccc2)N(Cc2ccccc2)[C@H]1Cc1ccccc1` ; its inhibition = -2.62

# compound `CC(C)(C)NC(=O)COC(=O)c1cc(Cl)ccc1[N+](=O)[O-]` ; its inhibition = -1.21

# compound Cc1c(C(=O)N2CC(C)OC(C)C2)sc2nc(-c3ccccc3)cn12 (stereo not given) ; its inhibition = -0.32
